Parameter: refractive index. Scope: all listed entries.
- ASSAY_REMARKS: refractive index (Na D-line) (dimensionless)
- SETTINGS: 293.1 K; 101.33 kPa; Liquid; Standard Abbe refractometry
Number, no unit, nothing else.

Sample records with refractive index:
CCCCCCCCCCCC [dodecane] : 1.422
CCCc1ccccc1 [propylbenzene] : 1.4915

Field refractive index (entry CCCCCCCCCCCCCCCCC [heptadecane] ) reads 1.4362

Field refractive index (entry CN1CCCC1=O [N-methylpyrrolidone] ) reads 1.4696

Field refractive index (entry CCCCCCCCCCCCCC [tetradecane] ) reads 1.4291
